The origin of these recorded values is paper PMC8016166.

Biological target: 5-HT1AR (Rattus norvegicus, UniProt P19327)
Construct: from tissue; hippocampus per the main-text methods
Sequence (P19327 whole entry): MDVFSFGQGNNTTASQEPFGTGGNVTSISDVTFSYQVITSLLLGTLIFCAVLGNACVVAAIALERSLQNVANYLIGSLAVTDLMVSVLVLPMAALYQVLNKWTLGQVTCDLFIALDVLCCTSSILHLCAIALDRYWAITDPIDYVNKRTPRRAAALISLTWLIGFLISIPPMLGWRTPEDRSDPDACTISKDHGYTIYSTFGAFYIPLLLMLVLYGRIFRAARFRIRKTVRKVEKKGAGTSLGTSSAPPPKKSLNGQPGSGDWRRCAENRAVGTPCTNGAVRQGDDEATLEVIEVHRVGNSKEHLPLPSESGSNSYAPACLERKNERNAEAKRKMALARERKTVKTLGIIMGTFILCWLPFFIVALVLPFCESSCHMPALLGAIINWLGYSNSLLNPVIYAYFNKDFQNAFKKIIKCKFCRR
Assay: Effect of WAY100635 on compound-stimulated [35S]GTPγS binding (Tables SI-1, SI-2)
Assay type: biochemical
Conditions: Table SI-1; basal set to 100%; read-out: Emax (%) ± SEM, compound alone
Procedure: The [^35S]GTPγS assay was performed according to the method described previously.[49] […] Nonspecific binding was determined with 100 μM of unlabeled GTPγS. The reaction mixture was incubated for 90 min at 36 °C in a volume of 250 μL. […] The radioactivity was counted in a Trilux MicroBeta^2 counter (PerkinElmer, USA). The data were analyzed with GraphPad Prism 5.0 software (GraphPad Software, San Diego California USA, www.graphpad.com). […] WAY).) Results were expressed as means ± SEM. […]
Provide the recorded Emax for the entries that follow.
Answer format: numeric, % implied, no suffix.

Quick check: Emax of c1ccc(C2(c3ccccc3)OC[C@@H](CNCCOc3ccccc3-c3ccncc3)O2)cc1 [(R)-1] ?
158

Now consider Cn1cncc1-c1ccccc1OCCNC[C@@H]1COC(c2ccccc2)(c2ccccc2)O1 [(R)-2] .
143

Now consider c1ccc(C2(c3ccccc3)OCC(CNCCOc3ccccc3-c3ccncc3)O2)cc1 (racemic) [rac-1] .
151

Now consider c1ccc(C2(c3ccccc3)OC[C@H](CNCCOc3ccccc3-c3ccncc3)O2)cc1 [(S)-1] .
138

Now consider Cn1cncc1-c1ccccc1OCCNCC1COC(c2ccccc2)(c2ccccc2)O1 (racemic) [rac-2] .
184

Now consider Cn1cncc1-c1ccccc1OCCNC[C@H]1COC(c2ccccc2)(c2ccccc2)O1 [(S)-2] .
175
